biological target: human MCH receptor expressed from the open reading frame cDNA SEQ. ID. NO. 1 in 293-AEQ17 cells (human, UniProt Q99705 1-353); experiment: cell-based or functional assay
Sequence (Q99705 whole entry): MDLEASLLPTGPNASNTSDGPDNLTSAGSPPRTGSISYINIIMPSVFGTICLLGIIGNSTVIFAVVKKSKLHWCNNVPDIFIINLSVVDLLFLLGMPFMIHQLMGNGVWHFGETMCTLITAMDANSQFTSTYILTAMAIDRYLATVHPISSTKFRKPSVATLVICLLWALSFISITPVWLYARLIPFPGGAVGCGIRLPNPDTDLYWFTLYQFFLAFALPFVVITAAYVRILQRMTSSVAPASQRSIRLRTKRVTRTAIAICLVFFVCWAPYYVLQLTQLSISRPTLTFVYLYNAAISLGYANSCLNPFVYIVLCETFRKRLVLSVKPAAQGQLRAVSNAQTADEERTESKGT
Bridges are numbered along the chain shown (N, C = ends).
Catalogue of Activation % values
Report as a plain number; the unit % is understood.

Example results:
Binder | Activation %, %
Ac-RCMLNRVYRPC-NH2 (disulfide 2-11 (inferred), ID; NO; 7 peptide; MCH position numbering) [MCH analog SEQ. ID. NO. 51 (position 10: Asn)] | 106
Ac-RCMLPRVYRPC-NH2 (disulfide 2-11 (inferred), ID; NO; 7 peptide; MCH position numbering) [MCH analog SEQ. ID. NO. 50 (position 10: Pro)] | 4

Input: Which measured Activation % value corresponds to Ac-RCMLKRVYRPC-NH2 (disulfide 2-11 (inferred), ID; NO; 7 peptide; MCH position numbering) [MCH analog SEQ. ID. NO. 53 (position 10: Lys)] ?
Output: 25
